tgt: M. tuberculosis Rv3377c (halimadienyl diphosphate synthase) (Mycobacterium tuberculosis)
Sequence (O50406 1-501): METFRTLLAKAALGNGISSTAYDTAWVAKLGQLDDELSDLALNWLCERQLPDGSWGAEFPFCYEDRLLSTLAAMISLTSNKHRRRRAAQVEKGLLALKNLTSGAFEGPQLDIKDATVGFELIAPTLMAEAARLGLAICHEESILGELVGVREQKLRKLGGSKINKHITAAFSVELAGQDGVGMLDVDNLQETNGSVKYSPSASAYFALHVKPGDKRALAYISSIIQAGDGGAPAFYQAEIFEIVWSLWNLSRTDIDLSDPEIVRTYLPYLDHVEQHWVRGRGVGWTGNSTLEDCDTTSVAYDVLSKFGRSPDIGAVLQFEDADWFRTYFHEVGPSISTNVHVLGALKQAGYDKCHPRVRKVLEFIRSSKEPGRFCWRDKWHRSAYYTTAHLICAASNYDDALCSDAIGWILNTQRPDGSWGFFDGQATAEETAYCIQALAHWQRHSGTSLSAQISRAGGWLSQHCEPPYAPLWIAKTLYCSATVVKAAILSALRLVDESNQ
pIC50: −log10 of the molar value.
quantity: pIC50

{"record smiles": "C/C(=C\\CC/C(C)=C/COP(=O)(O)OP(=O)(O)O)CC/C=C(\\C)CCCN(C)C", "quantity": "pIC50", "measured number": 8.30}

Values were extracted from paper PMC3805035.
